Tested on: NCI-H460
Assay: Cytotoxicity against human H460 cells assessed as cell growth inhibition after 72 hrs by MTT assay
Assay type: functional, cell-based
Settings: NCI-H460, 72 h
value-type: pIC50
One number for each entry, as −log10 of the molar value.

Below, each entry is followed by its recorded pIC50 result.
compound	pIC50
CN(C)CCn1c(=O)c(=Cc2ccc(O)cc2)s/c1=C1\C(=O)Nc2ccc(Br)cc21 (mixture of isomers)	5.95
Cc1ccc2c(c1)/C(=c1/sc(=Cc3ccc(O)cc3)c(=O)n1CCN(C)C)C(=O)N2 (mixture of isomers)	5.75
CCN(CC)CCCn1c(=O)c(=Cc2ccc(O)cc2)s/c1=C1\C(=O)Nc2ccc(C)cc21 (mixture of isomers)	6.59
CN(C)CCn1c(=O)c(=Cc2ccc3c(c2)OCO3)s/c1=C1\C(=O)Nc2ccccc21 (mixture of isomers)	6.09
CCN(CC)CCCn1c(=O)c(=Cc2cc(OC)c(OC)c(OC)c2)s/c1=C1\C(=O)Nc2cc(F)ccc21 (mixture of isomers)	5.85
CCN(CC)CCCn1c(=O)c(=Cc2ccccc2O)s/c1=C1\C(=O)Nc2ccc(C)cc21 (mixture of isomers)	4.95

Look at each compound and report its pIC50.
1. CCN(CC)CCCn1c(=O)c(=Cc2ccc(F)c(F)c2)s/c1=C1\C(=O)Nc2cc(F)ccc21 (mixture of isomers)
2. COc1cc(C=c2s/c(=C3\C(=O)Nc4ccc(F)cc43)n(CCN(C)C)c2=O)cc(OC)c1OC (mixture of isomers)
3. CCN(CC)CCCn1c(=O)c(=Cc2ccc(F)c(F)c2)s/c1=C1\C(=O)Nc2ccc(F)cc21 (mixture of isomers)
4. COc1ccc(C=c2s/c(=C3\C(=O)Nc4cc(F)ccc43)n(CCN(C)C)c2=O)cc1 (mixture of isomers)
5. CCN(CC)CCNC(=O)c1c(C)[nH]c(/C=C2\C(=O)Nc3ccc(F)cc32)c1C

Marked response:
5.95
5.77
5.89
5.66
5.57

====

Tested on: WI-38
Test: Cytotoxicity against human WI38 cells assessed as cell growth inhibition after 72 hrs by MTT assay
Format: cell-based
Conditions: WI-38, 72 h
value-type: IC50
State the value, then name its unit.

Below, each entry is followed by its recorded IC50 result.
molecule	target-or-test-system	value-type	result
CCN(CC)CCCn1c(=O)c(=Cc2ccc3c(c2)OCO3)s/c1=C1\C(=O)Nc2cc(F)ccc21 (mixture of isomers)	WI-38	IC50	8.3 µM
CCN(CC)CCCn1c(=O)c(=Cc2ccc3c(c2)OCO3)s/c1=C1\C(=O)Nc2ccc(Cl)cc21 (mixture of isomers)	WI-38	IC50	3.32 µM
COc1ccc(C=c2s/c(=C3\C(=O)Nc4cc(F)ccc43)n(CCN(C)C)c2=O)c(OC)c1 (mixture of isomers)	WI-38	IC50	3.01 µM

Look at each molecule and report its IC50.
1. CCN(CC)CCCn1c(=O)c(=Cc2ccc3c(c2)OCO3)s/c1=C1\C(=O)Nc2ccccc21 (mixture of isomers)
2. CCN(CC)CCCn1c(=O)c(=Cc2ccc3c(c2)OCO3)s/c1=C1\C(=O)Nc2ccc(F)cc21 (mixture of isomers)

Marked response:
["3.93 µM", "6.98 µM"]

Look at each molecule and report its IC50.
1. CCN(CC)CCCn1c(=O)c(=Cc2cc(OC)c(OC)c(OC)c2)s/c1=C1\C(=O)Nc2ccc(F)cc21 (mixture of isomers)
2. CCN(CC)CCCn1c(=O)c(=Cc2ccc(O)cc2)s/c1=C1\C(=O)Nc2ccc(C)cc21 (mixture of isomers)
3. CN(C)CCn1c(=O)c(=Cc2ccc3c(c2)OCO3)s/c1=C1\C(=O)Nc2ccccc21 (mixture of isomers)
4. CCN(CC)CCCn1c(=O)c(=Cc2ccc(F)c(F)c2)s/c1=C1\C(=O)Nc2cc(F)ccc21 (mixture of isomers)
5. COc1cc(C=c2s/c(=C3\C(=O)Nc4ccc(F)cc43)n(CCN(C)C)c2=O)cc(OC)c1OC (mixture of isomers)
6. CCN(CC)CCNC(=O)c1c(C)[nH]c(/C=C2\C(=O)Nc3ccc(F)cc32)c1C
7. CCN(CC)CCCn1c(=O)c(=Cc2ccc(F)c(F)c2)s/c1=C1\C(=O)Nc2ccc(F)cc21 (mixture of isomers)

Marked response:
1. 2.02 µM
2. 5.75 µM
3. 1.77 µM
4. 4.45 µM
5. 8.1 µM
6. 8.56 µM
7. 4.3 µM
